Measured Target: human PAD4 (Homo sapiens)
Construct: human PAD4 (NM_012387), A2P663, was PCR amplified; His-SUMO (N, cleaved yes)
Sequence (Q9UM07 2-663): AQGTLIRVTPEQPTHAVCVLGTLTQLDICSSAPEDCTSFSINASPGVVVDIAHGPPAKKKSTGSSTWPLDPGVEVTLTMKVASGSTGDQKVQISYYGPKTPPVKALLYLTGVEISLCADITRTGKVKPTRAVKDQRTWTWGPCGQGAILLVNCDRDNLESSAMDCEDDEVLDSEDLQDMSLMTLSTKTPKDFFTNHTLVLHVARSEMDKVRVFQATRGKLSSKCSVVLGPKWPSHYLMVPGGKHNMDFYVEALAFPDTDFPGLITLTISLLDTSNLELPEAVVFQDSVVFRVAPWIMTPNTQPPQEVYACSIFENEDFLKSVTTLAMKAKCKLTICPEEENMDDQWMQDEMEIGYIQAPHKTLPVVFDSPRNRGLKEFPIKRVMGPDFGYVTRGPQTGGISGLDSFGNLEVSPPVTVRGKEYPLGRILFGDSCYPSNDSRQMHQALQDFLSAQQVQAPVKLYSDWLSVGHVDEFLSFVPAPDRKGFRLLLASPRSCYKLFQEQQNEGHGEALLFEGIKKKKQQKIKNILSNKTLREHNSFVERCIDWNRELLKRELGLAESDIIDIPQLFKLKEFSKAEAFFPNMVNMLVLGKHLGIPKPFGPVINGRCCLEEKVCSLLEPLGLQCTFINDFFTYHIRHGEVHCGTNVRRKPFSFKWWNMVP
Test Method Notes: In vitro PAD4 BAEE biochemical assay
Condition Info: human PAD4, BAEE substrate; 5 nM PAD4, 2 mM calcium chloride, 3 mM BAEE; geometric mean of multiple experiments
pIC50: −log10 of the molar value.
Assay Endpoint: pIC50

The cases that follow already have their pIC50 on record.
Compound: COc1cc(C(=O)N2[C@H]3CC[C@@H]2[C@H](N)C3)cc2nc(-c3cc4ccc([C@@H](C)NC(=O)CCC(=O)O)nc4n3CC3CC3)c(C)n12
pIC50: 7.72
--
Compound: CS(=O)(=O)N(c1ccc2cc(-c3nc4cc(C(=O)N5CC[C@@H](O)[C@@H](N)C5)ccn4c3C3CC3)n(CC3CC3)c2n1)C(F)F
pIC50: 6.59
--
Compound: CCc1ccc2cc(-c3nc4cc(C(=O)N5CCC[C@@H](N)C5)cc(OC)n4c3C)n(CC3CC3)c2n1
pIC50: 6.52

(I) CCOC(=O)CCC(=O)N[C@H](C)c1ccc2cc(-c3nc4cc(C(=O)N5[C@H]6CC[C@@H]5[C@H](N)C6)cc(OC)n4c3C)n(CC3CC3)c2n1
(II) COc1cc(C(=O)N2CC[C@@H]3CCNC[C@@H]32)cc2nc(-c3cc4ccc(N(C(F)F)S(C)(=O)=O)nc4n3CC3CC3)c(C)n12 [Example 321]
(III) COc1cc(C(=O)N2C[C@@H]3NCCO[C@@H]3C2)cc2nc(-c3cc4ccc(N(C(F)F)S(C)(=O)=O)nc4n3CC3CC3)c(C)n12
[Q] Task field, ranking: reported pIC50, descending order. Please respond with the labels ordered as the question requires.
[A] I, II, III

====

Measured Target: human PAD4 (Homo sapiens)
Construct: human PAD4 (NM_012387), A2P663, was PCR amplified; His-SUMO (N, cleaved yes)
Test Method Notes: In vitro PAD4 BAEE biochemical assay
Condition Info: human PAD4, BAEE substrate; 5 nM PAD4, 2 mM calcium chloride, 3 mM BAEE; geometric mean of multiple experiments
pIC50: −log10 of the molar value.
Assay Endpoint: pIC50

Completed entries (count: 5):
Compound: COc1cc(C(=O)NC2C3CCCNC32)cc2nc(-c3cc4ccc(N(C(F)F)S(C)(=O)=O)nc4n3CC3CC3)c(C)n12 (centres unmarked) [Example 339]
pIC50: 4.67
//
Compound: COc1cc(C(=O)N2CCC[C@@H](N)C2)cc2nc(-c3cc4ccc(CCC(=O)N(C)C)nc4n3CC3CC3)c(C)n12 [Example 532]
pIC50: 5.83
//
Compound: COc1cc(C(=O)N2[C@H]3CC[C@@H]2[C@H](N)C3)cc2nc(-c3cc4ccc(N5CCOc6ccccc6S5(=O)=O)nc4n3CC3CC3)c(C)n12 [Example 460]
pIC50: 7.00
//
Compound: COc1cc(C(=O)N2[C@H]3CC[C@@H]2[C@H](N)C3)cc2nc(-c3cc4ccc(C(C)C#N)nc4n3CC3CC3)c(C)n12 (some centres unmarked) [Example 568]
pIC50: 6.88
//
Compound: CCc1ccc2cc(-c3nc4cc(C(=O)N5[C@H]6CC[C@@H]5[C@H](N)C6)cc(OC)n4c3C)[nH]c2n1 [Example 506]
pIC50: 4.37

(I) COc1cc(C(=O)N2[C@H]3CC[C@@H]2[C@H](N)C3)cc2nc(-c3cc4ccc(-c5ccccc5C)nc4n3CC3CC3)c(C)n12 [Example 550]
(II) COc1cc(C(=O)N2[C@H]3CC[C@@H]2[C@H](N)C3)cc2nc(-c3cc4ccc([C@@H](C)NC(=O)C56CCC(F)(CC5)CC6)nc4n3CC3CC3)c(C)n12 [Example 63]
[Q] Please compare: I and II . Report which one has the smaller pIC50 value. Provide the label of your selected option as the answer.
[A] I
